# Tested on: T cells from inguinal and popliteal lymph nodes and spleen
# ASSAY_NAME: T-cell recognition (proliferation) during adjuvant arthritis time course
# Type: cell-based, Lewis rats
# EXPERIMENTAL_PARAMETERS: positive: proliferation more than 1.5 times background in more than 25% of organs; days 14, 19, 21, 32, 39
ENDPOINT_LABEL: T-cell recognition during adjuvant arthritis

>  <QUERY_SEQUENCE>
LRSPVISIE (listed as Mus musculus) [SEQ ID NO: 24]

>  <TARGET_UNDER_TEST>
T cells from inguinal and popliteal lymph nodes and spleen

>  <OBS_VALUE>
positive

$$$$
>  <QUERY_SEQUENCE>
LPSGGDDLE (listed as Rattus sp.) [SEQ ID NO: 22]

>  <TARGET_UNDER_TEST>
T cells from inguinal and popliteal lymph nodes and spleen

>  <OBS_VALUE>
positive

$$$$
>  <QUERY_SEQUENCE>
GVSASVPVE (listed as Rattus sp.) [SEQ ID NO: 30]

>  <TARGET_UNDER_TEST>
T cells from inguinal and popliteal lymph nodes and spleen

>  <OBS_VALUE>
positive

$$$$
>  <QUERY_SEQUENCE>
SFSPTCVLE (listed as Homo sapiens) [SEQ ID NO: 38]

>  <TARGET_UNDER_TEST>
T cells from inguinal and popliteal lymph nodes and spleen

>  <OBS_VALUE>
positive

$$$$
>  <QUERY_SEQUENCE>
TRSGNCYLD (listed as Homo sapiens) [SEQ ID NO: 54]

>  <TARGET_UNDER_TEST>
T cells from inguinal and popliteal lymph nodes and spleen

>  <OBS_VALUE>
positive

$$$$
>  <QUERY_SEQUENCE>
FFSGSSQLE (listed as Rattus sp.) [SEQ ID NO: 49]

>  <TARGET_UNDER_TEST>
T cells from inguinal and popliteal lymph nodes and spleen

>  <OBS_VALUE>
positive

$$$$
>  <QUERY_SEQUENCE>
WPSLPSGLD (listed as Rattus sp.) [SEQ ID NO: 50]

>  <TARGET_UNDER_TEST>
T cells from inguinal and popliteal lymph nodes and spleen

>  <OBS_VALUE>
positive

$$$$
>  <QUERY_SEQUENCE>
LGSGSTRLE (listed as Homo sapiens) [SEQ ID NO: 40]

>  <TARGET_UNDER_TEST>
T cells from inguinal and popliteal lymph nodes and spleen

>  <OBS_VALUE>
positive

$$$$
>  <QUERY_SEQUENCE>
SGSFTTALD (listed as Homo sapiens) [SEQ ID NO: 65]

>  <TARGET_UNDER_TEST>
T cells from inguinal and popliteal lymph nodes and spleen

>  <OBS_VALUE>
positive

$$$$
>  <QUERY_SEQUENCE>
PDSAPGEIE (listed as Rattus sp.) [SEQ ID NO: 31]

>  <TARGET_UNDER_TEST>
T cells from inguinal and popliteal lymph nodes and spleen

>  <OBS_VALUE>
positive

$$$$
